- tested_on: MtPRS (Mycobacterium tuberculosis)
- experimental_protocol: MtPRS inhibition assays (coupled assay, fixed R5P and ATP)
- Type: biochemical
- conditions_used: R5P 60 µM, ATP 300 µM fixed; 0.24 µM MtPRS; no Pi; fit to partial inhibition equation
parameter: IC50 (µM)
Number in µM, nothing else.

Request: Bench note: what IC50 did O=c1ccn([C@@H]2O[C@H](COP(=O)(O)O)[C@@H](O)[C@H]2O)c(=O)[nH]1 show?
Response: 3000

---

- tested_on: MtPRS (Mycobacterium tuberculosis, UniProt P9WKE3)
- Sequence (P9WKE3 2-326): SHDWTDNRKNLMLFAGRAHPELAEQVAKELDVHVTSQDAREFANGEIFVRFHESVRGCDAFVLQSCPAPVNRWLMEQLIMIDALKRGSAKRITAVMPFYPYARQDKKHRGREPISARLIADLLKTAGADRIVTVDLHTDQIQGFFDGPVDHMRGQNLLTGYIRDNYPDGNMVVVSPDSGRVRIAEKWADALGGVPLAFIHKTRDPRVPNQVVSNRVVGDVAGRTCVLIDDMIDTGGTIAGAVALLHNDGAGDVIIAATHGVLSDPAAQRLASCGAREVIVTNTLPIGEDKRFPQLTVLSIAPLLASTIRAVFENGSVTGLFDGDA
- experimental_protocol: Intrinsic tryptophan fluorescence (ITF) titration, binary complex formation at equilibrium
- conditions_used: 25°C, MtPRS 3 µM, Tris HCl 50 mM pH 7.5, MgCl2 20 mM; read-out: KD (hyperbolic binding to free MtPRS)
parameter: pKd
Formally, pKd is defined as -log10 of the concentration c, with c in mol/L.

- Nc1ncnc2c1ncn2[C@@H]1O[C@H](COP(=O)(O)OP(=O)(O)OP(=O)(O)O)[C@@H](O)[C@H]1O [ATP, adenosine 5′-triphosphate]: 4.74
- Nc1nc2c(ncn2[C@@H]2O[C@H](COP(=O)(O)OP(=O)(O)OP(=O)(O)O)[C@@H](O)[C@H]2O)c(=O)[nH]1 [GTP, guanosine 5′-triphosphate]: 4.68

Request: Bench note: what pKd did O=P(O)(O)OC[C@H]1O[C@H](O)[C@H](O)[C@@H]1O [R5P, α-D-ribose 5-phosphate] show?
Response: 4.21

---

IC50 overview
- tested_on: MtPRS (Mycobacterium tuberculosis, UniProt P9WKE3)
- experimental_protocol: MtPRS inhibition assays (coupled assay, fixed R5P and ATP)
- Format: biochemical
- conditions_used: read-out: IC50 (partial inhibition of MtPRS activity)
Number in µM, nothing else.

* Nc1nc2c(ncn2[C@@H]2O[C@H](COP(=O)(O)OP(=O)(O)O)[C@@H](O)[C@H]2O)c(=O)[nH]1 [GDP, guanosine 5′-diphosphate] | 900

Request: Bench note: what IC50 did Nc1ncnc2c1ncn2[C@@H]1O[C@H](COP(=O)(O)OP(=O)(O)O)[C@@H](O)[C@H]1O [ADP, adenosine 5′-diphosphate] show?
Response: 70

---

- tested_on: MtPRS (Mycobacterium tuberculosis phosphoribosylpyrophosphate synthase) (Mycobacterium tuberculosis)
parameter: Ki (µM)
Number in µM, nothing else.

Request: Bench note: what Ki did O=P(O)(O)OC[C@H]1O[C@H](O)[C@H](O)[C@@H]1O [R5P, α-D-ribose 5-phosphate] show?
Response: 211
